biological target: DNA polymerase 1 (Klenow Fragment, KF) (Escherichia coli, UniProt P00582, L790C); construct: a cysteine variant of the Klenow fragment of DNA polymerase 1 (KF); made in house; assay: DNA polymerase I (Klenow fragment) single molecule device, nucleotide incorporation; format: biochemical, E. Coli; conditions: homopolymer DNA substrate with complementary nucleotide
Sequence (P00582 324-928 L790C): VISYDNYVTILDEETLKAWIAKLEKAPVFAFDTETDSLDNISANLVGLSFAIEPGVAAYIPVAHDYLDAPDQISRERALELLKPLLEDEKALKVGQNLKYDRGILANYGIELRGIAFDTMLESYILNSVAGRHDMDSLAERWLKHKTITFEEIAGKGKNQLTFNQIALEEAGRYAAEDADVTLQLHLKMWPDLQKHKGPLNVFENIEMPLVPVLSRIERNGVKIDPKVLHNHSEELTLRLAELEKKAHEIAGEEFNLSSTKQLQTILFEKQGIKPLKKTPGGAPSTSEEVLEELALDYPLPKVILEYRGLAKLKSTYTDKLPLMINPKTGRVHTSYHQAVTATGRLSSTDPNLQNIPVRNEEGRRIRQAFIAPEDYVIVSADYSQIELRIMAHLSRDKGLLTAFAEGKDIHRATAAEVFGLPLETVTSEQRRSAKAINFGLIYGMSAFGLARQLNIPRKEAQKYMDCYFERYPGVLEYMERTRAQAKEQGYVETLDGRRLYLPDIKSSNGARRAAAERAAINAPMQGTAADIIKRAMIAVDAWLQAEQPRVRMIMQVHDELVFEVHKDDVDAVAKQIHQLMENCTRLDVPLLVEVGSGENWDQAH
experimental.readout: τ hi (ms)
One number for each entry, in ms.

Please review the entries below; each comes with its answer.
- structure.as.smiles: "Nc1ccn([C@H]2C[C@H](O)[C@@H](COP(=O)(O)OP(=O)(O)OP(=O)(O)O)O2)c(=O)n1"
  unit.string: "ms"
  observed.result: 39.0
- structure.as.smiles: "Nc1ncnc2c1ncn2[C@H]1C[C@H](O)[C@@H](COP(=O)(O)OP(=O)(O)OP(=O)(O)O)O1"
  unit.string: "ms"
  observed.result: 71.4

Now look at this one.
What reported τ hi corresponds to `Nc1nc2c(ncn2[C@H]2C[C@H](O)[C@@H](COP(=O)(O)OP(=O)(O)OP(=O)(O)O)O2)c(=O)[nH]1` on DNA polymerase 1 (Klenow Fragment, KF) (Escherichia coli, UniProt P00582, L790C)? 38.0
